# Study system: F508delCFTR (Homo sapiens, UniProt P13569, DEL508-508)
# Construct: expressed in transfected cells; host or cells: CFBE41o- human lung-derived epithelial cells (CFBE4lo-F508delCFTR-HRP), doxycycline-inducible
# Sequence (P13569 with tags, fused parts or gaps DEL508-508): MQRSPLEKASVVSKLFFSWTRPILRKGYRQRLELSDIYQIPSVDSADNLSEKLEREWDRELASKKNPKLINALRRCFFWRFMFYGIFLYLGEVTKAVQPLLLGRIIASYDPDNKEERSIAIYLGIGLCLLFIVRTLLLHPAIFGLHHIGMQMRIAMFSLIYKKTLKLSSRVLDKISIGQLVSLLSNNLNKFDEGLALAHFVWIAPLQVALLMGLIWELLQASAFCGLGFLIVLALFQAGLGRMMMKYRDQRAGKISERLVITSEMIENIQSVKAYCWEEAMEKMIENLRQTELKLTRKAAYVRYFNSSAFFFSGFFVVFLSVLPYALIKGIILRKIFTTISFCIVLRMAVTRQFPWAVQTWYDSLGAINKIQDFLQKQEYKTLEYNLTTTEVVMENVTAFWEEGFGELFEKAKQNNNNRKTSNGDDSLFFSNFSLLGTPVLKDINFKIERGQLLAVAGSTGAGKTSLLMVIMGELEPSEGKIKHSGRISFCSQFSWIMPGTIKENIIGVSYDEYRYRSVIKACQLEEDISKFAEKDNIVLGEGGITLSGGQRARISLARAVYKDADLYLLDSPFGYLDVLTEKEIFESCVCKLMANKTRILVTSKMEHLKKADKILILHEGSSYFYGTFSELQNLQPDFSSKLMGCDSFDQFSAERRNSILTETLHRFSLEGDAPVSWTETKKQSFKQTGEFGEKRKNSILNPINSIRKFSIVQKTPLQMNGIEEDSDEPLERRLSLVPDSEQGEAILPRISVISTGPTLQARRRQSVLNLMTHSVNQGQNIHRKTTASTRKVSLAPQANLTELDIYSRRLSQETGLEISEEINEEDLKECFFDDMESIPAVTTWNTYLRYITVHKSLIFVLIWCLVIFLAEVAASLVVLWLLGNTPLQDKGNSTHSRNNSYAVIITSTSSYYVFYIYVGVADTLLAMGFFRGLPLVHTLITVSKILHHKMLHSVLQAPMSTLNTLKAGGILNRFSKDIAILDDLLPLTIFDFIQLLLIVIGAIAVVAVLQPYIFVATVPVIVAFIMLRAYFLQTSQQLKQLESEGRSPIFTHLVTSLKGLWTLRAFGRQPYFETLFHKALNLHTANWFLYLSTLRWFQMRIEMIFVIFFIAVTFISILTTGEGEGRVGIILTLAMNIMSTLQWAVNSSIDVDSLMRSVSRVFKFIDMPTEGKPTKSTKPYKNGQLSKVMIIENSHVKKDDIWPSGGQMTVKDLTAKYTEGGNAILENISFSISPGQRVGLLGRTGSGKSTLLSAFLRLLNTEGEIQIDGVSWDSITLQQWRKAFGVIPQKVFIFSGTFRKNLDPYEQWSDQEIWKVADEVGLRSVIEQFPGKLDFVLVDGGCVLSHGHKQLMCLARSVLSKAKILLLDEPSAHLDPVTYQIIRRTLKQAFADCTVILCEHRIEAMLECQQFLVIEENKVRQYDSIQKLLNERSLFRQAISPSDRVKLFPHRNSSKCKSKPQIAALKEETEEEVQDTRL
# Test description: Cell Surface Expression-Horse Radish Peroxidase (CSE-HRP) Assay;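 note: co-corrector and positive control are both the same reference corrector at 2 µM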
# Assay type: cell-based
# Test context: CSE-HRP; with co-corrector (2 μM); maximum at any tested concentration, normalized to on-plate positive control

{"columns": ["Molecule", "Maximum % activity (with co-corrector)"],
 "data": [
  ["COc1ncc(C2CCC2)cc1CN[C@H]1[C@H](C(C)(C)C)[C@@H](C(=O)O)N(C(=O)[C@H]2CCCCO2)[C@H]1c1ccccc1C [Example I-266]", "+++ (≥350)"],
  ["COc1ccc(C(C)(C)C)cc1CN[C@H]1[C@H](C(C)(C)C)[C@@H](C(=O)O)N(C(=O)c2c(C)nn(-c3ccccc3)c2C)[C@H]1c1ccccc1 [II-229]", "+++ (≥350)"],
  ["CC(C)Oc1ccccc1CN[C@@H]1[C@@H](C(C)(C)C)[C@H](C(=O)O)N(C(=O)C2CCCCC2)[C@@H]1c1ccccc1 (racemic) [II-4]", "+++ (≥350)"],
  ["COc1ccc(C(F)(F)F)cc1CN[C@H]1[C@H](C(C)(C)C)[C@@H](C(=O)O)N(C(=O)C2CCCC(F)(F)C2)[C@H]1c1cccnc1OC (relative stereo) [Example I-256]", "+++ (≥350)"],
  ["COc1ccc(C(C)C)cc1CN[C@H]1[C@H](C(C)(C)C)[C@@H](C(=O)O)N(C(=O)C2CCCCC2)[C@H]1c1ccccc1 [II-168]", "+++ (≥350)"]
]}

meta.source: patent US20180099931A1
